Reference source: BindingDB's records for patent WO2025064535

# Assay Target: UniProt Q96LB1
# Sequence (Q96LB1 whole entry): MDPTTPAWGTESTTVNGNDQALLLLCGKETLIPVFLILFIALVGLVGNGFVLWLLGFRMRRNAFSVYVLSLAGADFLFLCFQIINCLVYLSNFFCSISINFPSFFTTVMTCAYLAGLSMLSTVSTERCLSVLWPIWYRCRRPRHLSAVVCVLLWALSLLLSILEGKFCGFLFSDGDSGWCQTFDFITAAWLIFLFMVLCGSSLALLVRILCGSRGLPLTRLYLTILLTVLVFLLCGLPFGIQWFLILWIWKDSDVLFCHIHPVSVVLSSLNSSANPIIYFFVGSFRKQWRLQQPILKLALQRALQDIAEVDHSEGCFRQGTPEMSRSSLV
# Assay Method Text: MRGPRX2 Activity Assay
pIC50: −log10 of the molar value.
Quantity Measured: pIC50

Look over these answered cases.
{"columns": ["Cpd Smiles", "pIC50"],
 "data": [
  ["C[C@@H](C(=O)Nc1nc2cc3c(cc2s1)OC(F)(F)O3)N1CCC[C@@H](CO)C1", 5.95],
  ["C[C@@H](C(=O)Nc1nc2cc3c(cc2s1)OC(F)(F)O3)N1CCC(F)(F)[C@H](c2c[nH]c(=O)c(CO)c2)C1", 7.52],
  ["C[C@@H](C(=O)Nc1nc2cc3c(cc2s1)OC(F)(F)O3)N1CCC(F)(F)[C@H](n2ccc(=O)[nH]c2=O)C1", 6.20],
  ["C[C@@H](C(=O)Nc1nc2cc3c(cc2s1)OC(F)(F)O3)N1CCC(F)(F)[C@H](c2c[nH]c(=O)c([C@H](O)CO)c2)C1", 7.66]
]}

[a] C[C@H](C(=O)Nc1nc2cc3c(cc2s1)OC(F)(F)O3)N1CCC(F)(F)[C@@H](c2c[nH]c(=O)c(CN)c2)C1
[b] C[C@@H](C(=O)Nc1nc2cc3c(cc2s1)OC(F)(F)O3)N1CC[C@H](F)[C@H](c2cc[n+]([O-])cc2)C1
[c] C[C@@H](C(=O)Nc1nc2cc3c(cc2s1)OC(F)(F)O3)N1CCC(F)(F)[C@@H](c2c[nH]c(=O)c([C@@H](N)C(F)F)c2)C1
[d] CNCc1cc([C@@H]2CN([C@@H](C)C(=O)Nc3nc4cc5c(cc4s3)OC(F)(F)O5)CCC2(F)F)cc[n+]1[O-]
[e] C[C@@H](C(=O)Nc1nc2cc3c(cc2s1)OCCO3)N1CCC(F)(F)[C@H](c2c[nH]c(=O)cn2)C1
INPUT: Please list these in order of increasing pIC50. Thank you! Return value: ordered labels per request.
OUTPUT: a, b, d, c, e
